Molecular target: Albumin (Homo sapiens, UniProt P02768)
Sequence (P02768 whole entry): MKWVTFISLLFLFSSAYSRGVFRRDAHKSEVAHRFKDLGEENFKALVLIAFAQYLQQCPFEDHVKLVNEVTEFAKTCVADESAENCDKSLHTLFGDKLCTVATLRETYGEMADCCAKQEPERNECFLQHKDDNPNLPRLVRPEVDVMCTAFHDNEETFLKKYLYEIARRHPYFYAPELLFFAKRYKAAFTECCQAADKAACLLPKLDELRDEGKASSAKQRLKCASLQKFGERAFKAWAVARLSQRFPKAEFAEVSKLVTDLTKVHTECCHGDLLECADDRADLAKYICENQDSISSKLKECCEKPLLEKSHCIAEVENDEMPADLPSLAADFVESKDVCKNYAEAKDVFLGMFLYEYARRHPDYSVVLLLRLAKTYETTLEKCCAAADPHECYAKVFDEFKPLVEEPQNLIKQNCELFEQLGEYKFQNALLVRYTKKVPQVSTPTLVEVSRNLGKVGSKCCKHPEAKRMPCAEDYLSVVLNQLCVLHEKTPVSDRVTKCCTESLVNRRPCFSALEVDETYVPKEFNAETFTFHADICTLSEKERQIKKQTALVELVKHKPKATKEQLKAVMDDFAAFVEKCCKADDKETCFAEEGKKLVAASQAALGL
Experiment: Binding affinity to HSA by isothermal titration calorimetry
pKd: −log10 of the molar value.

{"molecule": "NS(=O)(=O)c1nnc(NC(=O)CCC(=O)NC(CCCCNC(=O)CCCc2ccc(I)cc2)C(=O)O)s1 (stereo unspecified)", "pKd": 6.09}

###

Target: Carbonic anhydrase 9 (Homo sapiens, UniProt Q16790)

{"compound": "NS(=O)(=O)c1nnc(NC(=O)CCC(=O)NC(CCCCNC(=O)CCCc2ccc(I)cc2)C(=O)O)s1 (stereo unspecified)", "target_entity": "Carbonic anhydrase 9 (Homo sapiens, UniProt Q16790)", "endpoint_unit": "nM", "Kd": 3.2}

// provenance: ChEMBL document CHEMBL1154037
